- System: Vero E6 infected with SARS-CoV-2
- Protocol Summary: morphology score (similarity to uninfected cells); higher = more like uninfected cells
- Condition Parameters: 24 h
Quantity Kind: morphology score
Just the number, please, no unit after it.

{"Compound": "N#C/C(=C\\c1ccc(O)c(O)c1)C(N)=O [tyrphostin-AG-99] (10 µM)", "Study Target": "Vero E6 infected with SARS-CoV-2", "morphology score": 0.0858}
{"Compound": "Cc1cccc(C)c1-n1c(=O)c2cnc(Nc3ccc(N4CCN(C)CC4)cc3)nc2n2c3ccccc3nc12 (0.833333 µM)", "Study Target": "Vero E6 infected with SARS-CoV-2", "morphology score": -0.0551}
{"Compound": "CC(=O)N(O)[C@@H]1c2cc(C#N)ccc2OC(C)(C)[C@H]1O (10 µM)", "Study Target": "Vero E6 infected with SARS-CoV-2", "morphology score": 0.477}
{"Compound": "C1=N/C2=N/c3ccc(OCCN4CCCC4)c(c3)COC/C=C/COCc3cccc(c3)C(=C1)N2 [pacritinib] (0.833333 µM)", "Study Target": "Vero E6 infected with SARS-CoV-2", "morphology score": 0.286}
{"Compound": "Nc1ccc(C(=O)NCC(=O)O)cc1 [4-aminohippuric-acid] (10 µM)", "Study Target": "Vero E6 infected with SARS-CoV-2", "morphology score": -0.0582}
{"Compound": "Cc1ccc(C[N+](C)(C)C)o1 [5-methylfurmethiodide] (10 µM)", "Study Target": "Vero E6 infected with SARS-CoV-2", "morphology score": -0.123}
{"Compound": "Nc1ccc(S(=O)(=O)Nc2ccccn2)cc1 [sulfapyridine] (10 µM)", "Study Target": "Vero E6 infected with SARS-CoV-2", "morphology score": 0.0798}
{"Compound": "O=C1Nc2ccc(Cl)cc2[C@@](C#CC2CC2)(C(F)(F)F)O1 [efavirenz] (10 µM)", "Study Target": "Vero E6 infected with SARS-CoV-2", "morphology score": 0.0664}

Give reported morphology score value for CN(C)C(=O)c1ccc(S(=O)(=O)c2ccc(NC(=O)[C@@](C)(O)C(F)(F)F)c(Cl)c2)cc1 (10 µM)
0.28

Give reported morphology score value for Cc1ccc(S(=O)(=O)Nc2ccc3c(c2)c(C(=O)C(F)(F)F)cn3CC(=O)N[C@@H](CC(C)C)C(=O)O)cc1 (10 µM)
0.0604

Give reported morphology score value for CN(C)C(=O)Nc1cccc(-c2ccc(N(C)C)cc2)c1 [atglistatin] (10 µM)
0.11
